- Species: Rattus norvegicus
- protocol_text: Maximum velocity was determined for rat liver DT diaphorase substrate activity
- Format: functional
Labelling: Vmax reported below 20 nM/s becomes YES; at or above becomes NO.

{"columns": ["compound", "assigned_label"],
 "data": [
  ["CC(=O)N[C@H]1CCn2c1nc1c2C(=O)C(C)=C(N2CC2)C1=O", "YES"]
]}

q: Quick check: does CC(=O)OC1CCn2c1nc1c2C(=O)C(C)=C(N2CC2)C1=O (racemic) have Vmax under 20 nM/s?
a: NO

q: Same thing, different compound: CC(=O)NC1CCn2c1nc1c2C(=O)C(C)=C(N2CC2)C1=O (racemic)
a: YES
